// provenance: ChEMBL document CHEMBL3871266

Assay: Cytotoxicity against human NCI-H460 cells expressing CTR5 gene assessed as reduction in cell viability measured after 72 hrs by CellTiter-Blue cell viability assay
Assay type: functional, cell-based
Conditions: Homo sapiens, NCI-H460, 72 h; read-out: IC50
pIC50: −log10 of the molar value.
readoutName: pIC50

Completed entries (count: 2):
C=C(C)[C@@H]1CC[C@]2(C)[C@H](C[C@@H](F)C34OC(=O)[C@@]5(CC[C@@H](C)[C@H](C)[C@@H]35)CC[C@]42C)[C@@]1(C)CCC#N: < 4.77
C[C@H]1[C@H](C)CC[C@@]23CC[C@]4(C)C(OC2=O)([C@H](F)C[C@@H]2[C@@]5(C)CCC(=O)NC(C)(C)[C@@H]5CC[C@]24C)[C@H]13: < 4.60

Consider the record given below.
Sure, the documented pIC50 for C[C@H]1[C@H](C)CC[C@@]23CC[C@]4(C)C(OC2=O)([C@H](F)C[C@@H]2[C@@]5(C)CCC(=O)C(C)(C)[C@@H]5CC[C@]24C)[C@H]13 is < 4.30

====

// values below are reported pIC50
Assay: Cytotoxicity against human NCI-H460 cells expressing CTR5 gene assessed as reduction in cell viability measured after 72 hrs by CellTiter-Blue cell viability assay
Format: functional, cell-based
Conditions: Homo sapiens, NCI-H460, 72 h; read-out: IC50
pIC50: −log10 of the molar value.

Solved entries:
C=C(C)[C@@H]1CC[C@]2(C)[C@H](C[C@@H](F)C34OC(=O)[C@@]5(CC[C@@H](C)[C@H](C)[C@@H]35)CC[C@]42C)[C@@]1(C)CCC(=O)O: < 4.30
C[C@H]1[C@H](C)CC[C@]2(C(=O)O)CC[C@]3(C)C(=CC[C@@H]4[C@@]5(C)CC[C@H](O)C(C)(C)[C@@H]5CC[C@]43C)[C@H]12: 4.83
C=C(C)[C@@H]1CC[C@]2(C)[C@H](C[C@@H](F)C34OC(=O)[C@@]5(CC[C@@H](C)[C@H](C)[C@@H]35)CC[C@]42C)[C@@]1(C)CCC(=O)Nc1ccccc1: < 4.30

// C=C(C)[C@@H]1CC[C@]2(C)[C@H](C[C@@H](F)C34OC(=O)[C@@]5(CC[C@@H](C)[C@H](C)[C@@H]35)CC[C@]42C)[C@@]1(C)CCC(=O)NCc1ccc(F)cc1 : pIC50 value = < 4.30

Lab note: measured pIC50 of C=C(C)[C@@H]1CC[C@]2(C)[C@H](C[C@@H](F)C34OC(=O)[C@@]5(CC[C@@H](C)[C@H](C)[C@@H]35)CC[C@]42C)[C@@]1(C)CCC(=O)NCCc1ccccc1 was < 4.30

====

Test: Cytotoxicity against human NCI-H460 cells expressing CTR5 gene assessed as reduction in cell viability measured after 72 hrs by CellTiter-Blue cell viability assay
Format: functional, cell-based
Settings: Homo sapiens, NCI-H460, 72 h; read-out: IC50
readoutName: IC50

Kindly note the recorded IC50 for C=C(C)[C@@H]1CC[C@]2(C)[C@H](C[C@@H](F)C34OC(=O)[C@@]5(CC[C@@H](C)[C@H](C)[C@@H]35)CC[C@]42C)[C@@]1(C)CCC(=O)NCc1ccc(C)cc1 , which is > 50 µM

Value of measured IC50 for the entry C=C(C)[C@@H]1CC[C@]2(C)[C@H](C[C@@H](F)C34OC(=O)[C@@]5(CC[C@@H](C)[C@H](C)[C@@H]35)CC[C@]42C)[C@@]1(C)CCC(=O)NCCc1ccccc1OC : > 50 µM

IC50 reported for this molecule C=C(C)[C@@H]1CC[C@]2(C)[C@H](C[C@@H](F)C34OC(=O)[C@@]5(CC[C@@H](C)[C@H](C)[C@@H]35)CC[C@]42C)[C@@]1(C)CCC(=O)NC : 4.5 µM
